- Tested on: pdr5 ypt1^ts cells
- assay_overview: microbe, parasite or virus in culture
- Assay type: cell-based, yeast
- study_conditions: Table 2; 12.5 μM compound; 37° C.; background (0 μM) 0.058
Items are presented alongside their recorded optical density, ypt1-ts, 12.5.
metric_name: optical density, ypt1-ts, 12.5

molecule	metric_name	readout_value
CN(C)C(=O)Nc1ccc(Cl)c(Cl)c1	optical density, ypt1-ts, 12.5	0.101
COC(=O)[C@]1(C)CC[C@]2(C)CC[C@]3(C)C4=CCc5c(cc(O)c(O)c5C)[C@]4(C)CC[C@@]3(C)[C@@H]2C1	optical density, ypt1-ts, 12.5	0.362
COC(=O)C[C@H]1C(C)(C)[C@@H](O)[C@@H]2CC3=C4C=C(OC)O[C@@H](c5ccoc5)[C@]4(C)CCC3[C@]1(C)C2=O (stereo partly drawn) [3-DEOXO-3beta-HYDRO[…] 16-ENOL ETHER]	optical density, ypt1-ts, 12.5	0.583
COc1cc(C)c2c(=O)cc(-c3ccccc3)oc2c1	optical density, ypt1-ts, 12.5	0.142

----------
- Tested on: pdr5 ypt1^ts cells
- assay_overview: microbe, parasite or virus in culture
- Format: cell-based, yeast
- study_conditions: Table 2; 6.25 μM compound; 37° C.; background (0 μM) 0.058
So basically, if optical density, ypt1-ts, 6.25 comes in under 0.2 it's YES, and if it's 0.2 or more it's NO.

In [3]: df
Out[3]:
                                    molecule  label
 0                COc1ccc2oc3ccccc3c(=O)c2c1    YES
 1  CCOC(=O)c1c(C)cc(O)c(C)c1O [METHYL[…], ETHYL ESTER]    YES
 2         CCOc1cccc(C(=O)c2ccc(O)c(O)c2O)c1    YES
 3  CC1(C)C2CC(=O)O[C@]3(C)C4=CC(=O)O[C@@H](c5ccoc5)[C@]4(C)CCC3[C@@]2(C)C=C[C@H]1O (stereo partly drawn)     NO
 4  CC1=CC(=O)[C@H]2C(C)(C)CCC[C@]2(C)[C@@]1(O)CCc1ccoc1    YES
 5                  CC(C)OC(=O)Nc1cccc(Cl)c1    YES
 6               CN(C)C(=O)Nc1ccc(Cl)c(Cl)c1    YES
 7     CC(=O)c1cc(CC=C(C)C)c(O)c(CC=C(C)C)c1    YES
 8  O=C([O-])Cc1ccccc1Nc1c(Cl)cccc1Cl.[Na+] [DICLOFENAC SODIUM, reference compound]    YES
 9  CCCCC1(COC(=O)CCC(=O)O)C(=O)N(c2ccccc2)N(c2ccccc2)C1=O [SUXIBUZONE, reference compound]    YES
10  COC(=O)[C@]1(C)CC[C@]2(C)CC[C@]3(C)C4=CC=C5C(=CC(=O)C(O)=C5C)[C@]4(C)CC[C@@]3(C)[C@@H]2C1     NO
11  CC(=O)OCC[N+](C)(C)C.[Cl-] [ACETYLCHOLINE, reference compound]    YES

----------
optical density, ypt1-ts, 6.25 reference
- System: pdr5 ypt1^ts cells
- assay_overview: microbe, parasite or virus in culture
- Assay type: cell-based, yeast
- study_conditions: Table 2; 6.25 μM compound; 37° C.; background (0 μM) 0.058
metric_name: optical density, ypt1-ts, 6.25

molecule	metric_name	readout_value
COc1cccc(/C=C/C(=O)O)c1C(C)C [2-ISOPROPYL-3- METHOXYCINNAMIC ACID]	optical density, ypt1-ts, 6.25	0.123
CCCc1occc(=O)c1/C=C/O [2-PROPYL-3- HYDRO[…]-4-ONE]	optical density, ypt1-ts, 6.25	0.088
O=c1c2ccccc2oc2ccccc12 [XANTHONE]	optical density, ypt1-ts, 6.25	0.152
C=C1CCC(OC(C)=O)/C(C)=C/C[C@@H]2[C@@H]1CC2(C)C (stereo partly shown) [CARY[…]]	optical density, ypt1-ts, 6.25	0.109
CCOC(=O)C1=C(C)NC(C)=C(C(=O)OC)C1c1cccc([N+](=O)[O-])c1 (stereo not shown) [NITRENDIPINE, reference compound]	optical density, ypt1-ts, 6.25	0.309
CC(=O)O[C@]1(C(C)=O)CC[C@H]2[C@@H]3C=C(Cl)C4=CC(=O)CC[C@]4(C)[C@H]3CC[C@@]21C [CHLORMADINONE ACETATE, reference compound]	optical density, ypt1-ts, 6.25	0.11
C/C=C(\C)C(=O)O[C@@H]1c2c(ccc3ccc(=O)oc23)OC(C)(C)[C@@H]1OC(C)=O [PTERYXIN]	optical density, ypt1-ts, 6.25	0.134
CCOC(=O)c1c(C)cc(O)c(C=O)c1O [H[…], ETHYL ESTER]	optical density, ypt1-ts, 6.25	0.204
Cc1ccc(C)c(OCCCC(C)(C)C(=O)O)c1 [GEMFIBROZIL, reference compound]	optical density, ypt1-ts, 6.25	0.442
CC(C)C1=CC2=CCC3[C@](C)(CCC[C@]3(C)C(=O)O)C2CC1 (stereo partly shown) [ABIETIC ACID]	optical density, ypt1-ts, 6.25	0.173
O=C1c2ccccc2-c2cccc3cccc1c23 [BENZANTHRONE]	optical density, ypt1-ts, 6.25	0.491
C[n+]1cc2c3c(ccc2c2ccc4cc5c(cc4c21)OCO5)OCO3.O=S(=O)([O-])O [SANGUINARINE SULFATE]	optical density, ypt1-ts, 6.25	0.111
CC(C)=CCOc1cc2oc(=O)ccc2cc1O [PRENYLETIN]	optical density, ypt1-ts, 6.25	0.09
C=CCC1(C(C)CCC)C(=O)N=C([S-])NC1=O.[Na+] (stereo not shown) [THIAMYLAL SODIUM, reference compound]	optical density, ypt1-ts, 6.25	0.103
c1ccc2c(Cc3c[nH]c4ccccc34)c[nH]c2c1 [3,3'- DIINDOLYLMETHANE]	optical density, ypt1-ts, 6.25	0.154
CCOc1ccc(C(=O)c2ccc(O)c(O)c2O)cc1 [2,3,4-TRIHYDROXY-4'- ETHOX[…]]	optical density, ypt1-ts, 6.25	0.1
C=C1C2CC[C@@]3(C)[C@H](c4ccoc4)OC(=O)C[C@]13O[C@H]1C[C@H](OC(C)=O)C(C)(C)[C@H](CC(=O)OC)[C@@]21C [3beta- ACETO[…] ACID, METHYL ESTER]	optical density, ypt1-ts, 6.25	0.538
COc1ccc(CC(=O)c2ccc(O)cc2O)cc1 [ONONETIN]	optical density, ypt1-ts, 6.25	0.14
COc1ccc2c(c1)OCC(Cc1ccc(OC)c(O)c1)C2=O (stereo not shown)	optical density, ypt1-ts, 6.25	0.125
CC1(C)C(=O)C=C[C@@]2(C)C1=C(O)C(=O)[C@]1(C)[C@@H]2CC[C@@]2(C)[C@H](c3ccoc3)C[C@H]3O[C@]321 [CEDRELONE]	optical density, ypt1-ts, 6.25	0.532
CC(=O)Nc1ccc(OC(=O)c2ccccc2O)cc1 [ACETAMINOSALOL, reference compound]	optical density, ypt1-ts, 6.25	0.103
CC/C(=C(/CC)c1ccc(O)cc1)c1ccc(O)cc1 [DIETHYLSTILBESTROL, reference compound]	optical density, ypt1-ts, 6.25	0.103
CC1(C)CC2C1CCC1(CBr)CC[C@H]3C(CC(=O)O)C(=O)OC23C1 (stereo partly shown)	optical density, ypt1-ts, 6.25	0.139
COc1ccc2c(c1)O[C@H]1c3ccc(OC)cc3OC[C@@H]21 [HOMOPTEROCARPIN]	optical density, ypt1-ts, 6.25	0.09
CC(C)=CCOc1c2occc2cc2ccc(=O)oc12 [IMPERATORIN]	optical density, ypt1-ts, 6.25	0.082
COc1c2occc2cc2c(=O)c3c(oc12)COc1cc2c(cc1-3)OCO2 [DEHYDRO- PACHYRRHIZONE]	optical density, ypt1-ts, 6.25	0.124
CC(=O)[C@H]1CC[C@H]2[C@@H]3CCC4=CC(=O)CC[C@]4(C)[C@H]3CC[C@]12C [PROGESTERONE, reference compound]	optical density, ypt1-ts, 6.25	0.12
COc1cccc2c1CCC1CC(=O)CC[C@]21C (stereo partly shown)	optical density, ypt1-ts, 6.25	0.096
C=C1C(=O)OC2CC1C(OC(C)=O)C/C(C)=C/CC/C(C)=C/CC[C@]2(C)O (stereo partly shown) [CRASSIN ACETATE]	optical density, ypt1-ts, 6.25	0.107
C[C@]12CCC3C(CC[C@H]4C[C@H](O)CC[C@]34C)C1CC[C@@H]2O (stereo partly shown) [EPIANDROSTANEDIOL]	optical density, ypt1-ts, 6.25	0.099
COc1cc(C)c2c(=O)cc(-c3ccccc3)oc2c1 [METHOXYVONE]	optical density, ypt1-ts, 6.25	0.114
C=CCCCCCCCCCCCC(O)CC(O)CO (stereo not shown) [AVOCADENE]	optical density, ypt1-ts, 6.25	0.134
Oc1ccc2c(c1)OCC1c3cc4c(cc3OC21)OCO4 (stereo not shown) [MAACKIAIN]	optical density, ypt1-ts, 6.25	0.09
COc1ccc2c(c1OC)OC[C@@H](c1ccc(OC)c(OC)c1OC)C2 [DUARTIN, DIMETHYL ETHER]	optical density, ypt1-ts, 6.25	0.239
